System: NCI-H2107
Assay: SANGER: Inhibition of human NCI-H2107 cell growth in a cell viability assay.
Type: functional, cell-based
pIC50: −log10 of the molar value.
propertyName: pIC50

INSERT INTO results (inputsmiles, recordedresult) VALUES
  ('Cc1cc(Nc2cc(N3CCN(C)CC3)nc(Sc3ccc(NC(=O)C4CC4)cc3)n2)n[nH]1', '< 5.70');

###

System: COLO-684
Experiment: cells
Assay type: functional, cell-based
Details: Homo sapiens
Description: SANGER: Inhibition of human COLO-684 cell growth in a cell viability assay.
pIC50: −log10 of the molar value.
Item-by-item account of pIC50
propertyName: pIC50

INSERT INTO results (molecule, recordedresult) VALUES
  ('C[C@]1(O)C[C@@H](c2nc(-c3ccc4ccc(-c5ccccc5)nc4c3)c3c(N)nccn32)C1', '< 5.59'),
  ('O=c1cc(-c2cccc3c2Sc2ccccc2S3)oc(N2CCOCC2)c1', '< 5.00'),
  ('C=C1C(=O)O[C@@H]2C3O[C@]3(C)CC/C=C(\C)CC[C@@H]12 (stereo partly drawn)', '< 5.30'),
  ('COc1cc([C@@H]2c3cc4c(cc3[C@@H](O[C@@H]3O[C@@H]5CO[C@@H](C)O[C@H]5[C@H](O)[C@H]3O)[C@H]3COC(=O)[C@H]23)OCO4)cc(OC)c1O [ETOPOSIDE]', '< 4.80'),
  ('COC(=O)CNC(=O)C(=O)OC', 3.25),
  ('CN1CCN(CCOc2cc(OC3CCOCC3)c3c(Nc4c(Cl)ccc5c4OCO5)ncnc3c2)CC1', '< 5.70'),
  ('CN(C)C/C=C/C(=O)Nc1cc2c(Nc3ccc(F)c(Cl)c3)ncnc2cc1O[C@H]1CCOC1', '< 6.30'),
  ('CCC1=C[C@@H]2CN(C1)Cc1c([nH]c3ccccc13)[C@@](C(=O)OC)(c1cc3c(cc1OC)N(C)[C@H]1[C@@](O)(C(=O)OC)[C@H](OC(C)=O)[C@]4(CC)C=CCN5CC[C@]31[C@@H]54)C2', 7.86);

###

Test system: MFE-280;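 note: growth inhibition of MFE-280 cells, determined with a cell viability readout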
Assay: cells
Assay type: functional, cell-based, Homo sapiens
Settings: Homo sapiens, MFE-280
Description: SANGER: Inhibition of human MFE-280 cell growth in a cell viability assay.
pIC50: −log10 of the molar value.
Overview of recorded pIC50 for various compounds
propertyName: pIC50

INSERT INTO results (compound, recordedresult) VALUES
  ('CN(C)C/C=C/C(=O)Nc1cc2c(Nc3ccc(F)c(Cl)c3)ncnc2cc1O[C@H]1CCOC1', '< 6.30'),
  ('C[C@]1(O)C[C@@H](c2nc(-c3ccc4ccc(-c5ccccc5)nc4c3)c3c(N)nccn32)C1', '< 5.59'),
  ('Cc1cnc(-c2cnc(NCCNc3ccc(C#N)cn3)nc2-c2ccc(Cl)cc2Cl)[nH]1', '< 5.59'),
  ('O=C(NOCC1CC1)c1ccc(F)c(F)c1Nc1ccc(I)cc1Cl', 5.16),
  ('COc1cc(F)c(F)c(Nc2ccc(I)cc2F)c1NS(=O)(=O)C1(CC(O)CO)CC1 (stereo not drawn)', '< 5.30'),
  ('O=c1cc(-c2cccc3c2Sc2ccccc2S3)oc(N2CCOCC2)c1', '< 5.00'),
  ('COc1ccc(C2=N[C@@H](c3ccc(Cl)cc3)[C@@H](c3ccc(Cl)cc3)N2C(=O)N2CCNC(=O)C2)c(OC(C)C)c1', '< 5.10'),
  ('Nc1ccn([C@@H]2O[C@H](CO)[C@@H](O)[C@@H]2O)c(=O)n1', '< 5.70');
